system: M. tuberculosis H37Rv growth inhibition; test: M. tuberculosis H37Rv growth inhibitors, H37Rv strain (AID 1626)
pIC50: −log10 of the molar value.
metric-name: pIC50

The examples below pair each entry with its known result.
CCOC(=O)c1cnc(Nc2nc3ccccc3o2)nc1C	4.69
O=C(NCc1ccco1)c1cc([N+](=O)[O-])cc([N+](=O)[O-])c1	5.84
CN(C)c1ccc(O)c2c1CC1CC3C(N(C)C)C(=O)C(C(N)=O)=C(O)[C@@]3(O)C(=O)C1=C2O (stereo not given in full)	5.48

Prompt line: I'd like to know its pIC50. The compound in question is `COc1cc(/C=C/c2ccc3c(Br)cc(Br)c(O)c3n2)ccc1O`
Response line: > 6.71

Prompt line: I'd like to know its pIC50. The compound in question is `O=C(COC(=O)/C=C/c1cccs1)Nc1ccc2ccccc2c1`
Response line: 4.04

Prompt line: I'd like to know its pIC50. The compound in question is `COC(=O)CSc1ccc2c(N)c(C(=O)OC)sc2c1`
Response line: 5.78

Prompt line: I'd like to know its pIC50. The compound in question is CC1CCc2nc(NC(=O)CN3CCN(c4ccccc4)CC3)sc2C1 (stereo not given)
Response line: 4.61

Prompt line: I'd like to know its pIC50. The compound in question is `Cc1cccc(CN2C(=O)[C@@H]3Cc4c([nH]c5ccccc45)C(C)(C)N3C2=O)c1`
Response line: 5.06

Prompt line: I'd like to know its pIC50. The compound in question is `CC(=O)c1ccc(NC(=O)CSCC(=O)Nc2ccc3ccccc3c2)cc1`
Response line: 4.29

Prompt line: I'd like to know its pIC50. The compound in question is `O=[N+]([O-])c1ccc(Sc2cccc3cccnc23)c([N+](=O)[O-])c1`
Response line: 4.48

These data points were gathered from PubChem BioAssay AID1626.
